Test system: Plasmodium berghei
protocol.notes: Screen against P. berghei liver stage (PbLuc), transformed with Luciferase, at 10uM
Type: functional, HepG2
measurement.conditions: tested at 10 uM
In all, about 69,000 compounds went through this assay and about 8,600 (12%) showed an effect of 50% or more. This excerpt belongs to a sample that is enriched for strong results.
Measured INHIBITION, listed per entry for reference.
property.measured: INHIBITION (%)

                                    compound  property_measured  units_text  readout_number
 0  Cc1ccc(-c2noc(CN3CCOC(Cn4cccn4)C3)n2)cc1 (stereo not given)         INHIBITION           %            48.6
 1       CN1CCC(c2nc3ccc(-c4ccccc4)cn3n2)CC1         INHIBITION           %           -15.7
 2  Cc1nn(C)c(C)c1C1CCCN1C(=O)CCCNc1ncccn1 (stereo not given)         INHIBITION           %             -16
 3        O=S(=O)(NCC1CCN(c2cnccn2)CC1)C1CC1         INHIBITION           %            27.5
 4  Cc1csc(CN(C)C(C)C(=O)N2CCc3ccccc3C2)n1 (stereo not given)         INHIBITION           %              38
 5  CS(=O)(=O)N1CCC(c2nc3ccc(-c4cccc(F)c4)cn3n2)CC1         INHIBITION           %            58.3
 6  COCC(=O)N1CCC(c2nc3ccc(N4CCCC4)cn3n2)CC1         INHIBITION           %           -18.2
 7          NCCc1c(-c2ccc(F)cc2)[nH][nH]c1=O         INHIBITION           %            39.1
 8  Cc1nn(C)c(C)c1C(=O)NCc1cc(N(C)C)nc2ccccc12         INHIBITION           %           -21.1
 9  CCOC(=O)C1CCN(C(=O)CN2CCCC2Cc2ccccc2)CC1 (stereo not given)         INHIBITION           %           -4.93
10  O=C(NC1CC1)N1CC[C@@H](O)[C@@H]1Cc1ccccc1         INHIBITION           %           -23.3
11  CCN(CC(=O)NC1(C)CCS(=O)(=O)C1)Cc1ccc(OC)c(F)c1 (stereo not given)         INHIBITION           %           -9.37
12  c1ccc2c3c([nH]c2c1)C(c1nn[nH]n1)CCC3 (stereo not given)         INHIBITION           %            26.4
13  COCC(=O)N1CCC(c2nc3ccc(-c4ccccc4)cn3n2)CC1         INHIBITION           %           -28.2
14  COCCc1noc(CN2CCCC2Cn2nc(C)nc2C)n1 (stereo not given)         INHIBITION           %            64.8
15  Cn1cnc2c1C(COCC1CCOCC1)CN(C1CCOCC1)C2 (stereo not given)         INHIBITION           %          -0.569
16  CSCCC(=O)N1CCCC1c1ccsc1 (stereo not given)         INHIBITION           %            1.81
17  CCc1nc(C2CCCN2CC(=O)NCCOc2ccccc2)no1 (stereo not given)         INHIBITION           %           -2.95
18    CN1CCC(c2nc3ccc(-c4cccc(F)c4)cn3n2)CC1         INHIBITION           %            33.5
19  O=S(=O)(c1cccc(Cl)c1)N1C[C@@H]2CCN[C@@H]2C1         INHIBITION           %           -14.7
20  Cc1nc(C)n(CC2CCCCN2Cc2ncc(C(C)(C)C)o2)n1 (stereo not given)         INHIBITION           %              31
21  Cc1nc(-c2nnc[nH]2)sc1C(=O)N1CCCC1c1cccs1 (stereo not given)         INHIBITION           %           -81.2
22  O=C1NCCCC1NC(=O)C1(c2cccc(Cl)c2)CCC1 (stereo not given)         INHIBITION           %           -2.27
23  COCCc1noc(CN2CCCCC2Cn2nc(C)cc2C)n1 (stereo not given)         INHIBITION           %            18.4
24  CCc1cnc(CN(C)C(C)C(=O)N2CCc3ccccc3C2)s1 (stereo not given)         INHIBITION           %              62
25  COc1ccc(-c2csc3c2c(N)nc(=O)n3CCCN(C)C)cc1         INHIBITION           %            60.1
26  CC(C(=O)N1CCc2ccccc2C1)N(C)Cc1cscn1 (stereo not given)         INHIBITION           %            32.9
27  COC(=O)CNC(=O)c1cn(-c2ccccn2)c(=O)c2ccccc12         INHIBITION           %           -21.4
28  c1ccc(-c2ccc3nc(C4CCN(CC5CC5)CC4)nn3c2)cc1         INHIBITION           %             6.8
29  Cc1nc(C2CCCN2CC(=O)NCCOc2ccccc2)no1 (stereo not given)         INHIBITION           %            50.4
30  CC(=O)c1cc(CN2CCCC23CCN(c2ccccn2)CC3)cs1         INHIBITION           %            12.7
31  c1cncc(CN2Cc3nccn3CC(Cn3cncn3)C2)c1 (stereo not given)         INHIBITION           %            5.41
32  COc1ccc(-c2csc3c2c(N)nc(=O)n3CC(N)=O)cc1         INHIBITION           %            58.2
33  Cc1cc(C)n(-c2ccc(C(=O)NCC(c3cccs3)N(C)C)cc2)n1 (stereo not given)         INHIBITION           %              30
34  Cc1nc(C2CCCN2CC(=O)NCCOc2cccc(F)c2)no1 (stereo not given)         INHIBITION           %          2.8815
35  O=C(NCCCn1ccnc1)N1CCCC1c1ccsc1 (stereo not given)         INHIBITION           %            28.4
36  Cc1nc(-c2nnc[nH]2)sc1C(=O)N1CCCC1CC(C)(C)C (stereo not given)         INHIBITION           %           -10.2
37    COc1cccc2cc(CNC(=O)N3CCOC(C)(C)C3)oc12         INHIBITION           %            33.8
38         CCc1c(C)sc2c1c(N)nc(=O)n2CCCN(C)C         INHIBITION           %           -11.9
39  CN(C)C(=O)N1CCC(c2nc3ccc(-c4ccccc4)cn3n2)CC1         INHIBITION           %            65.3
40  COc1cc2nc3n(c(=O)c2cc1OC)CCN(C(=O)C1CC1)CC3         INHIBITION           %            35.2
41  Cc1cccc(OCCNC(=O)CN2CCCC2c2noc(C)n2)c1 (stereo not given)         INHIBITION           %           6.905
42  c1cnnc(N2CCCC(NCc3cn4ccccc4n3)C2)c1 (stereo not given)         INHIBITION           %            27.9
43  COc1ccc(-c2csc3c2c(N)nc(=O)n3CCN(C)C)cc1         INHIBITION           %            50.8
44  CCOC(=O)C1CCN(C(=O)CN2CCCC2c2ccccc2C)CC1 (stereo not given)         INHIBITION           %            70.1
